- Tested on: EKVX
- protocol-summary: NCI tumour cell line growth inhibition, 48 h
Activity calls are given as the source filed them. Cut-off read from the data, not from the text of the source: active = GI50 up to about 1.1 µM and inactive = higher.
measured-metric: GI50

Recorded GI50, per entry:
compound=c1ccc(CN2CCc3[nH]c4ccccc4c3C2)cc1 result="46.5 µM (inactive)"
compound=Nc1c(C(=O)O)nnc2cc(Cl)ccc12 result="> 100 µM (inactive)"
compound=COc1ccc2[nH]c(Cl)c(/C=C3/C(=O)N(c4ccccc4)c4ccccc43)c2c1 result="7.08 µM (inactive)"
compound="C=C1CC2(CC(c3ccccc3Cl)OC(c3ccccc3Cl)C2)OC1=O (stereo not drawn)" result="8.34 µM (inactive)"
compound="NCCSC1(O)C(=O)c2ccccc2-c2ccccc21 (stereo not drawn)" result="1.66 µM (inactive)"

Query block: Dear colleague, I am looking for the recorded GI50 of the following compound: CCOC(=O)C1=C(C)N(Cc2ccccc2)C2(O)C=CC(O)=C3C(=O)c4ccccc4C(=O)C312 (stereo not drawn)
Result block: 16.4 µM (inactive)
